System: MDA-MB-231
Assay: Cytotoxicity against human MDA-MB-231 cells after 4 days by MTT assay
Format: functional, cell-based
Details: MDA-MB-231, 96 h
pEC50: −log10 of the molar value.
Measurement label: pEC50

[[record]]
molecule = "C/C1=C\\CC(=O)/C=C/C=C\\c2csc(n2)[C@@H](C)NC(=O)C[C@]2(CC1)[C@@H](C)C(=O)S[S+]2[O-] (stereo not given in full)"
relation_symbol = "="
measured_number = 7.15

[[record]]
molecule = "C/C1=C\\CC(=O)/C=C/C=C\\c2csc(n2)[C@@H](C)NC(=O)C[C@@]2(CC1)SSC(=O)[C@@H]2C"
relation_symbol = "<"
measured_number = 5.00

[[record]]
molecule = "C/C1=C\\CC(=O)/C=C/C=C\\c2csc(n2)[C@@H](C)NC(=O)C[C@@](S)([C@@H](C)C(=O)O)CC1"
relation_symbol = "<"
measured_number = 5.00

[[record]]
molecule = "C/C1=C\\[C@@H](O)C(=O)/C=C/C=C\\c2csc(n2)[C@@H](C)NC(=O)C[C@@]2(CC1)[S+]([O-])SC(=O)[C@]2(C)O (stereo not given in full)"
relation_symbol = "="
measured_number = 8.05

[[record]]
molecule = "C/C1=C\\CC(=O)/C=C/C=C\\c2csc(n2)[C@@H](C)NC(=O)C[C@@]2(CC1)SC(=O)[C@@H]2C"
relation_symbol = "="
measured_number = 5.71

